Numbers sourced from patent US20090005363A1.

tested system: mGluR5 (Homo sapiens, UniProt P41594)
Sequence (P41594 21-1180 isoform P41594-2 limits assumed): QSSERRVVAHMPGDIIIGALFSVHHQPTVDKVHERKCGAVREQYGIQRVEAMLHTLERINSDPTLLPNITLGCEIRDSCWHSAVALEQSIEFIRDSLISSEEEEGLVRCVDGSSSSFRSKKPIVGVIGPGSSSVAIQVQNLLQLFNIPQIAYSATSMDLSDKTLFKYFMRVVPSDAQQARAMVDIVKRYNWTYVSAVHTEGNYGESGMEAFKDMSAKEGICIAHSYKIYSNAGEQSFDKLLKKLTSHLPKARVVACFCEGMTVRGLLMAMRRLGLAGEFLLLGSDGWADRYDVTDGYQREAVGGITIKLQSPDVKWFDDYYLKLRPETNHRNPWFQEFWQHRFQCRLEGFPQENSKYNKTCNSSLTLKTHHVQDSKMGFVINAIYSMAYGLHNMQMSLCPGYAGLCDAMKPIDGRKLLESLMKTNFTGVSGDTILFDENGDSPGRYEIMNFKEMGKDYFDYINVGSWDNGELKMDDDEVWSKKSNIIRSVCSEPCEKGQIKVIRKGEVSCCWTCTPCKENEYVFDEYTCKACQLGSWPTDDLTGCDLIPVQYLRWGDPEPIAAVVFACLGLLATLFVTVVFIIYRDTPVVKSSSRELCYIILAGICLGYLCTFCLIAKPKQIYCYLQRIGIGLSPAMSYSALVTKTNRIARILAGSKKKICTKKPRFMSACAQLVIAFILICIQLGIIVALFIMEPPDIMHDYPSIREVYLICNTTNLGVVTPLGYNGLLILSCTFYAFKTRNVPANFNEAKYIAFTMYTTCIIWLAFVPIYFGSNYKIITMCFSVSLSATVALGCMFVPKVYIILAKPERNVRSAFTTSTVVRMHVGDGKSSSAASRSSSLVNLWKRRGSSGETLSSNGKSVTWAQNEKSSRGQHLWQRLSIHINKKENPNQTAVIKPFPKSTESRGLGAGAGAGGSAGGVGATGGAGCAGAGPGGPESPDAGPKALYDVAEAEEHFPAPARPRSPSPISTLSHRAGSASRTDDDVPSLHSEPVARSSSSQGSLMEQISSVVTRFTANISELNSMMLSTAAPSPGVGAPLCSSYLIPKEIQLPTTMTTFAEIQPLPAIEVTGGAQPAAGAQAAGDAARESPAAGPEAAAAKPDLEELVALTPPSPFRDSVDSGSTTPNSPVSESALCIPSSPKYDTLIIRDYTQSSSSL
run description: inhibition of the glutamate induced elevation of intracellular Ca2+ concentration
condition label: read-out: mGluR5 Activity inh. at 10 μM [%]
Structures can show the parent of a compound that is named as a salt.
Consider the following compounds and their measured inhibition at 10 µM readings.
Express it in %; write the number only.

The cases that follow already have their inhibition at 10 µM on record.
-- ask Bench note: what inhibition at 10 µM did COc1ccc(Nc2ncc(C(=O)N3CCCCCC3)cc2Cl)cn1 show?
-- reply 98

-- ask // repeat for Cc1ccc(Nc2ncc(C(=O)N3CCCCC3C3CCCO3)cc2Cl)cn1 (stereo not drawn) and report
-- reply 99

-- ask Request: O=C(c1cnc(Nc2ccc(Cl)cc2)nc1)N1CCCCCC1
-- reply 87

-- ask Field entry: O=C(c1ccc(Nc2ccc(Cl)cc2)nc1)N1CCCC2CCCCC21 (stereo not drawn)
-- reply 94

-- ask Try the compound Cc1ccc(Nc2ccc(C(=O)N3CCCC(C)C3)cn2)cn1 (racemic)
-- reply 97

-- ask Here is the next compound: Cc1ccc(Nc2ccc(C(=O)N3CCCCC3C)cn2)cc1 (stereo not drawn)
-- reply 94

-- ask What do we get for O=C(c1cnc(Nc2ccc(Cl)cc2)c(Cl)c1)N1CC2CCC1C2 (racemic) ?
-- reply 100

-- ask // repeat for CC1CCCN(C(=O)c2ccc(Nc3cccc(Cl)c3)nc2)C1 (stereo not drawn) [Compound 1.16, hydrochloride] and report
-- reply 54

Proceeding to the next compound to report its inhibition at 10 µM.
-- ask Which inhibition at 10 µM value is on record for Cc1ccc(Nc2ncc(C(=O)N3C(C)CCCC3C)cc2Cl)cn1 (stereo not drawn) ?
-- reply 99

###

tested system: mGluR5 (Homo sapiens, UniProt P41594)
run description: inhibition of the glutamate induced elevation of intracellular Ca2+ concentration
condition label: read-out: mGluR5 Activity inh. at 10 μM [%]
readout: inhibition at 10 µM (%)
Give the number; % is assumed, so skip it.

-- ask Name the reported inhibition at 10 µM value associated with the molecule Cc1ccc(Nc2ncc(C(=O)N3CCC[C@H](C)[C@@H]3C)cc2Cl)cn1
-- reply 99

-- ask Request: COCCC1CCCCN1C(=O)c1cnc(Nc2ccc(C)nc2)c(Cl)c1 (stereo not drawn)
-- reply 99

-- ask And COc1ccc(Nc2ncc(C(=O)N3CCCC(C)C3)cc2Cl)cn1 (racemic) ?
-- reply 98

-- ask What do you have for CCCC1COCCN1C(=O)c1cnc(Nc2ccc(C)nc2)c(Cl)c1 (stereo not drawn) ?
-- reply 100

###

tested system: mGluR5 (Homo sapiens, UniProt P41594)
run description: inhibition of the glutamate induced elevation of intracellular Ca2+ concentration
condition label: inhibition of glutamate induced elevation of intracellular Ca2+ concentration at 10 μM
Measured mGluR5 Activity inh. at 10 μM [%] by item
Numbers only; they are read as %.

-- ask May I ask what mGluR5 Activity inh. at 10 μM [%] has been recorded for Cc1ccc(Nc2ccc(C(=O)N3CCCC(C)C3)cn2)cc1 (stereo not shown) ?
-- reply 96

More entries:
-- ask Fill in: mGluR5 Activity inh. at 10 μM [%] of Cc1ccc(Nc2ccc(C(=O)N3CCC[C@H](C)C3)cn2)cn1 [Compound 4.13a] is ___
-- reply 97

-- ask One more compound: COc1ccc(Nc2ccc(C(=O)N3C[C@@H](C)O[C@@H](C)C3)cn2)cc1.Cl
-- reply 57

-- ask Please give the result for C/C=C\C1CCCCN1C(=O)c1cnc(Nc2ccc(C)nc2)c(Cl)c1 (stereo not shown) too.
-- reply 97

-- ask Same for C[C@H]1CCCN(C(=O)c2ccc(Nc3ccc(Cl)cc3)nc2)C1 [Compound 1.12a]
-- reply 99

-- ask What about Cc1ccc(Nc2ncc(C(=O)N3CCC[C@@H]4CCC[C@@H]43)cc2Cl)cn1 ?
-- reply 93

-- ask How about this compound: Cc1ccc(Nc2ncc(C(=O)N3CCCC4CCCC43)cc2Cl)cn1 (stereo not shown)
-- reply 98
